- ASSAY TARGET: T1, human nerve growth factor (beta-NGF) (human, UniProt P01138 122-241)
- T1 construct: mature; also called human NGF; hu NGF
- T1 sequence (P01138 122-241): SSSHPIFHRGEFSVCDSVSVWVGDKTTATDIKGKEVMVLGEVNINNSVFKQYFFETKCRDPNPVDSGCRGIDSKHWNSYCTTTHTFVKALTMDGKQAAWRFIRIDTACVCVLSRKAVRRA
- PROTOCOL SUMMARY: purified scFv, inhibition of human NGF binding to TrkA fusion protein
MEASURE: IC50 (nM)
Give just the numeric value; nM need not be written.

Some binders with recorded IC50:
BINDER	IC50 [nM]
1160E3 scFv (scFv, V domains shown, also called LOT1160E03) VH: EVQLVQSGAEVKKPGSSAKVSCKASGGTFSTYGISWVRQAPGQGLEWIGGIIPIFDTGNSAQSFQGRVTITADESTSTAYMEVSSLRSDDTAVYYCASSSRIYDLNPSLTAYYDMDVWGQGTMVTVSS VL: QAVLTQPSSVSTPPGQKVTISCSGSNSNIGNNYVSWYQQLPGTAPKLLIYDNNKRPSGIPDRFSGSKSGTSATLGITGLQTGDEADYYCGTWDSSLSAWVFGGGTKLTVL	0.14
1132H9 scFv (scFv, V domains shown, also called LOT1132H09) VH: EVQLVQSGAEVKKPGSSVKVSCKASGGTFSTYGISWVRQAPGQGLEWIGGIIPIFDTGNSAQSFQGRVTITADESTSTAYMEVSSLRSDDTAVYYCASSSRIYDLNPSLTAYYDMDVWGQGTMVTVSS VL: QAVLTQPSSVSTPPGQKVTISCSGSSSDIGNNYVSWYQQLPGTAPKLLIYDNNKRPTGIPDRFSGSKSGTSATLGITGLQTGDEADYYCGTWDSSLSAWVFGGGTKLTVL	0.54
1150F1 scFv (scFv, V domains shown, also called LOT1150F01) VH: EVQLVQSGAEVKKPGSSVKVSCKASGGTFSTYGISWVRQAPGQGLEWIGGIIPIFDTGNSAQSFQDRVTITADESTSTAYMEVGSLRSDDTAVYYCASSSRIYDLNPSLTAYYDMDVWGHGTMVTVSS VL: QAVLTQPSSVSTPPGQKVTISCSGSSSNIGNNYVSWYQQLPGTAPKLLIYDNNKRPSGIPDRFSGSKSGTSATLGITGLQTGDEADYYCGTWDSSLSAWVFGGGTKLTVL	0.2

Switching to the query record.
// IC50 lookup, key: 1146D7 scFv (scFv, V domains shown, also called LOT1146D07) VH: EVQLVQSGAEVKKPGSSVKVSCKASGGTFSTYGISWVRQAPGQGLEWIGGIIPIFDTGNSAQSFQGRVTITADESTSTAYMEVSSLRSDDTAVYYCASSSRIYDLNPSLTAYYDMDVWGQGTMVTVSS VL: QAVLTQPSSVSTPPGQEVTISCSGSSTNIGNNYVSWYQQLPGTAPKLLIYDNNKRPSGIPDRFSGSKSGTSATLGITGLQTGDEADYYCGTWDSSLSAWVFGGGTKLTVL
0.23
